Test Method Notes: in vivo
Stated Conditions: both, SD, rat, plasma, po, 20 mg/kg
Quantity: Cmax (ng/mL)

[[record]]
smiles_representation = "C[C@@H](O)CN1CC2CCC(C1)N2c1nc(OCC2(CN3CCC(=C(F)F)CC3)CC2)nc2c(F)c(-c3ncc(F)c4sc(N)c(C#N)c34)c3c(c12)COC3"
quantity = "Cmax"
measured_value = 377


---

Test Method Notes: in vivo
Stated Conditions: rat, in vivo, po, 20 mg/kg
Quantity: Vd/F

[[record]]
molecule = "N#Cc1c(N)sc2c(F)ccc(-c3c4c(c5cnc(OC[C@@]67CCCN6C[C@H](F)C7)nc5c3Cl)COC4)c12 (single isomer, unassigned) [60A (reference), reference compound]"
measured_value = "54.5 L/kg"


Data provenance: patent EP4803523A1
